These entries and their values trace back to patent US20250163104A1.

pIC50: recorded values
target: human PD-1 / PD-L1-Ig binding on Jurkat cell line over-expressing human PD-1 (Jurkat-PD-1) (Homo sapiens, UniProt Q15116); construct: expressed in transfected cells; host or cells: Jurkat; experiment: Jurkat-PD-1 Cell Binding High-Content Screening Assay (CBA); format: cell-based; settings: Jurkat-PD-1 cells, PE-labeled PD-L1-Ig 20 nM final; read-out: Jurkat HPD1_PDL1 IC50
Sequence (Q15116 25-288): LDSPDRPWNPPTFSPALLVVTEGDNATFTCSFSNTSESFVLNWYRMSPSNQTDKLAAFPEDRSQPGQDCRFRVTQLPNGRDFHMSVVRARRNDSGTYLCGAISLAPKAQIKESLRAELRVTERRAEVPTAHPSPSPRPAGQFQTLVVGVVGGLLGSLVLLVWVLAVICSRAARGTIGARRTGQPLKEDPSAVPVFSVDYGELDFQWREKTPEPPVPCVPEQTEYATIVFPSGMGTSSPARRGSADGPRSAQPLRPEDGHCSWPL
Where a SMILES comes first, the peptide text is derived from it. Bridges are numbered along the chain shown (N, C = ends). [ ]: non-standard residue; d: D form. Bip = N[C@@H](Cc1ccc(-c2ccccc2)cc1)C(=O)O; Cit = NC(=O)NCCC[C@H](N)C(=O)O; Orn = NCCC[C@H](N)C(=O)O; Dab = NCC[C@H](N)C(=O)O
Notebook: values listed as pIC50 are -log10 of the concentration (mol/L).

Answered cases to consult:
MOLECULE	pIC50
CC(C)C[C@@H]1NC(=O)[C@H](CCN)NC(=O)[C@@H](CC(C)C)NC(=O)[C@H](CCCCN)NC(=O)[C@H](CCCNC(N)=O)NC(=O)[C@H](Cc2ccc(-c3ccccc3)cc2)NC(=O)[C@H](C(C)C)NC(=O)[C@H](Cc2c[nH]c3ccccc23)NC(=O)[C@H](CC(=O)O)NC(=O)[C@H](Cc2ccc(O)cc2)NC(=O)[C@H](CC(N)=O)NC(=O)CSC[C@@H](C(=O)N[C@@H](C)C(N)=O)NC(=O)[C@H](CO)NC(=O)[C@H](C(C)C)NC1=O [Compound 1110] ({CH2CO}-NYDWV[Bip][Cit]K[dL][Dab]LVSCA-NH2; thioether N-14)	7.45
CC(C)C[C@H]1NC(=O)[C@H](CCCN)NC(=O)[C@H](C(C)C)NC(=O)[C@H](Cc2ccc(-c3ccccc3)cc2)NC(=O)[C@H](C(C)C)NC(=O)[C@H](Cc2cccc(Cl)c2)NC(=O)[C@H](CC(=O)O)NC(=O)[C@H](Cc2ccc(OCC(=O)O)cc2)NC(=O)[C@H](Cc2ccc(OCC(=O)O)cc2)NC(=O)CSC[C@@H](C(=O)N[C@@H](C)C(N)=O)NC(=O)[C@H]([C@@H](C)O)NC(=O)[C@H](C(C)C)NC(=O)[C@H](CC2CCCCC2)NC(=O)[C@H](CCN)NC1=O	7.74
CC(C)C[C@@H]1NC(=O)[C@H](CCN)NC(=O)[C@@H](CC(C)C)NC(=O)[C@H](CCN)NC(=O)[C@H](C(C)C)NC(=O)[C@H](Cc2ccc(-c3ccccc3)cc2)NC(=O)[C@H](C(C)C)NC(=O)[C@H](Cc2c[nH]c3ccccc23)NC(=O)[C@H](CC(=O)O)NC(=O)[C@H](Cc2ccc(O)cc2)NC(=O)[C@H](CC(N)=O)NC(=O)CSC[C@@H](C(=O)N[C@@H](C)C(N)=O)NC(=O)[C@H]([C@@H](C)O)NC(=O)[C@H](C(C)C)NC1=O [Compound 1029] ({CH2CO}-NYDWV[Bip]V[Dab][dL][Dab]LVTCA-NH2; thioether N-14)	8.27

QUERY: Which value of pIC50 has been reported for CC[C@H](C)[C@@H]1NC(=O)[C@H](Cc2ccc(-c3ccccc3)cc2)NC(=O)[C@H](C(C)C)NC(=O)[C@H](Cc2c[nH]c3ccccc23)NC(=O)[C@H](CC(=O)O)NC(=O)[C@H](Cc2ccc(O)cc2)NC(=O)[C@H](CC(N)=O)NC(=O)CSC[C@@H](C(=O)N[C@@H](C)C(N)=O)NC(=O)[C@H](CO)NC(=O)[C@H](C(C)C)NC(=O)[C@H](CC(C)C)NC(=O)[C@H](CCN)NC(=O)[C@@H](CC(C)C)NC(=O)[C@H](CCCN)NC1=O [Compound 1118] ({CH2CO}-NYDWV[Bip]I[Orn][dL][Dab]LVSCA-NH2; thioether N-14) in the records?
RESULT: 7.64
